- system: Glycogen synthase kinase-3 beta (Homo sapiens)
- assay comment: Competitive inhibition of human recombinant full length GSK3beta using YRRAAVPPSPSLSRHSSPHQ(pS)EDEEE as substrate preincubated with enzyme for 10 mins followed by substrate and 100 uM ATP addition measured after 60 mins by ADP-Glo luminescence assay
pIC50: −log10 of the molar value.

smiles	pIC50
CSc1nc(-c2ccc(F)cc2)c(-c2ccnc(NC(=O)C3CC3)c2)[nH]1	6.76

---

- assay comment: Metabolic stability in human liver microsomes assessed as parent compound remaining after 120 mins by LC-MS analysis relative to control
- Type: ADME, Microsome
- assay conditions: read-out: Stability
reported property: remaining at 2 h

smiles	experimental result
CSc1nc(-c2ccc(F)cc2)c(-c2ccnc(NC(=O)C3CC3)c2)[nH]1	65.9%
O=C(Nc1cc(-c2[nH]c(Cc3ccccc3)nc2-c2ccc(F)cc2)ccn1)C1CC1	69.8%
CCc1nc(-c2ccc(F)cc2)c(-c2ccnc(NC(=O)C3CC3)c2)[nH]1	96.4%

---

- system: Glycogen synthase kinase-3 beta (Homo sapiens, UniProt P49841)
- Sequence (P49841 whole entry): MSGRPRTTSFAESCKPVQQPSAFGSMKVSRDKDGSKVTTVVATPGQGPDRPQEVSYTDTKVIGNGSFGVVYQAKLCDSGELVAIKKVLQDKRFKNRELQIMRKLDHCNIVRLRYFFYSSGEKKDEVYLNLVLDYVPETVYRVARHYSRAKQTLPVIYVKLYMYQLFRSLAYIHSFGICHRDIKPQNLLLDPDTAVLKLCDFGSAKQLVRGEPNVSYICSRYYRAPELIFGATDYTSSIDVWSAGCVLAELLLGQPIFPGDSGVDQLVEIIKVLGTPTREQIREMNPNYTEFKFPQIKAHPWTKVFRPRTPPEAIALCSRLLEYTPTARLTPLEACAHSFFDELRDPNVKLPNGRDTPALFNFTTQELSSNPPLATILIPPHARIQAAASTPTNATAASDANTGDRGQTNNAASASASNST
- assay comment: Competitive inhibition of human recombinant full length GSK3beta using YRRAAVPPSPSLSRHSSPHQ(pS)EDEEE as substrate preincubated with enzyme for 10 mins followed by substrate and 25 uM ATP addition measured after 60 mins by ADP-Glo luminescence assay
Field 'label' (enum: condition met / condition not met). Set to condition met when IC50 is strictly under 400 nM; else condition not met.

compound	classification
CSc1nc(-c2ccc(F)cc2)c(-c2ccnc(NC(=O)C3CCC(=O)C3)c2)[nH]1 (stereo not given)	condition met
C[S+]([O-])c1nc(-c2ccc(F)cc2)c(-c2ccnc(NC(=O)C3CCC3)c2)[nH]1 (stereo not given)	condition not met
CC(=O)Nc1cc(-c2[nH]c(SCc3ccccc3)nc2-c2ccc(F)cc2)ccn1	condition not met
O=C(Nc1cc(-c2[nH]c(SCc3ccccc3)nc2-c2ccc(F)cc2)ccn1)C1CC1	condition met
COc1cc(CCC(=O)Nc2cc(-c3[nH]c(SC)nc3-c3ccc(F)cc3)ccn2)cc(OC)c1OC	condition met

---

# remaining at 20 min listing for each entry below
- assay comment: Metabolic stability in human liver microsomes assessed as parent compound remaining after 20 mins by LC-MS analysis relative to control
- Assay type: ADME, Microsome
- assay conditions: read-out: Stability
reported property: remaining at 20 min (%)

smiles	experimental result
O=C(Nc1cc(-c2[nH]c(Cc3ccccc3)nc2-c2ccc(F)cc2)ccn1)C1CC1	83.6
CSc1nc(-c2ccc(F)cc2)c(-c2ccnc(NC(=O)C3CC3)c2)[nH]1	97.9
CCc1nc(-c2ccc(F)cc2)c(-c2ccnc(NC(=O)C3CC3)c2)[nH]1	93.4

---

# pIC50 listing for each entry below
- system: Glycogen synthase kinase-3 beta (Homo sapiens)
- assay comment: Competitive inhibition of human recombinant full length GSK3beta using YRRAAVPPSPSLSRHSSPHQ(pS)EDEEE as substrate preincubated with enzyme for 10 mins followed by substrate and 25 uM ATP addition measured after 60 mins by ADP-Glo luminescence assay
pIC50: −log10 of the molar value.
reported property: pIC50

compound	qualifier symbol	experimental result
CSc1nc(-c2ccc(F)cc2)c(-c2ccnc(NC(=O)CN3CCCC3=O)c2)[nH]1	=	6.90
O=C(Nc1cc(-c2[nH]cnc2-c2ccc(F)cc2)ccn1)C1CC1	=	7.19
CSc1nc(-c2ccc(F)cc2)c(-c2ccnc(NC(=O)Cc3ccc(C(F)(F)F)cc3)c2)[nH]1	=	5.49
CSc1nc(-c2ccc(F)cc2)c(-c2ccnc(NCC3CC3)c2)[nH]1	<	5.00
CSc1nc(-c2ccc(F)cc2)c(-c2ccnc(NC(=O)C3(C(F)(F)F)CC3)c2)[nH]1	<	5.00
CSc1nc(-c2ccc(F)cc2)c(-c2ccnc(NC(=O)[C@H]3C[C@@H](Cl)C3)c2)[nH]1	=	6.77
CSc1nc(-c2ccc(F)cc2)c(-c2ccnc(NC(C)=O)c2)[nH]1	=	6.82
C[S+]([O-])c1nc(-c2ccc(F)cc2)c(-c2ccnc(NC(=O)C3CC3)c2)[nH]1 (centres undefined)	=	6.63

---

- assay comment: Metabolic stability in human liver microsomes assessed as parent compound remaining after 240 mins by LC-MS analysis relative to control
- Type: ADME, Microsome
- assay conditions: read-out: Stability
# remaining at 4 h listing for each entry below

smiles	unit info	remaining at 4 h
O=C(Cc1ccc(F)cc1)Nc1cc(-c2[nH]c(SCc3ccccc3)nc2-c2ccc(F)cc2)ccn1	%	66
O=C(Nc1cc(-c2[nH]c(Cc3ccccc3)nc2-c2ccc(F)cc2)ccn1)C1CC1	%	66.1
CCc1nc(-c2ccc(F)cc2)c(-c2ccnc(NC(=O)C3CC3)c2)[nH]1	%	98.3
CSc1nc(-c2ccc(F)cc2)c(-c2ccnc(NC(=O)C3CC3)c2)[nH]1	%	44

---

- system: Glycogen synthase kinase-3 beta (Homo sapiens)
- assay comment: Competitive inhibition of human recombinant full length GSK3beta using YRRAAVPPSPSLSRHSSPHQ(pS)EDEEE as substrate preincubated with enzyme for 10 mins followed by substrate and 500 uM ATP addition measured after 60 mins by ADP-Glo luminescence assay

smiles	system	IC50
CSc1nc(-c2ccc(F)cc2)c(-c2ccnc(NC(=O)C3CC3)c2)[nH]1	Glycogen synthase kinase-3 beta (Homo sapiens)	0.423 µM
CCc1nc(-c2ccc(F)cc2)c(-c2ccnc(NC(=O)C3CC3)c2)[nH]1	Glycogen synthase kinase-3 beta (Homo sapiens)	0.492 µM

---

# remaining at 1 h listing for each entry below
- assay comment: Metabolic stability in human liver microsomes assessed as parent compound remaining after 60 mins by LC-MS analysis relative to control
- Format: ADME, Microsome
- assay conditions: read-out: Stability
reported property: remaining at 1 h

smiles	reported property	experimental result
O=C(Nc1cc(-c2[nH]c(Cc3ccccc3)nc2-c2ccc(F)cc2)ccn1)C1CC1	remaining at 1 h	69.4%
CCc1nc(-c2ccc(F)cc2)c(-c2ccnc(NC(=O)C3CC3)c2)[nH]1	remaining at 1 h	95.2%
CSc1nc(-c2ccc(F)cc2)c(-c2ccnc(NC(=O)C3CC3)c2)[nH]1	remaining at 1 h	81.8%

---

- system: UniProtKB P49841
- assay comment: Competitive inhibition of human recombinant full length GSK3beta using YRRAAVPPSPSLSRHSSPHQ(pS)EDEEE as substrate preincubated with enzyme for 10 mins followed by substrate and 25 uM ATP addition measured after 60 mins by ADP-Glo luminescence assay
pIC50: −log10 of the molar value.
reported property: pIC50

smiles	reported property	experimental result
O=C(Nc1cc(-c2[nH]c(Cc3ccccc3)nc2-c2ccc(F)cc2)ccn1)C1CC1	pIC50	7.23
COc1cc(CCC(=O)Nc2cc(-c3[nH]c(SCc4ccccc4)nc3-c3ccc(F)cc3)ccn2)cc(OC)c1OC	pIC50	5.94
CSc1nc(-c2ccnc(NC(=O)C3CC3)c2)c(-c2ccc(F)cc2)n1C	pIC50	5.75
CSc1nc(-c2ccc(F)cc2)c(-c2ccnc(NC(=O)C3CCC3)c2)[nH]1	pIC50	6.88
O=C(Nc1cc(-c2[nH]c(-c3ccccc3)nc2-c2ccc(F)cc2)ccn1)C1CC1	pIC50	6.24
CSc1nc(-c2ccc(F)cc2)c(-c2ccnc(NC(=O)C3CC3)c2)n1C	pIC50	6.20
COc1cccc(CCC(=O)Nc2cc(-c3[nH]c(SC)nc3-c3ccc(F)cc3)ccn2)c1	pIC50	6.33
COc1cc(CC(=O)Nc2cc(-c3[nH]c(SC)nc3-c3ccc(F)cc3)ccn2)cc(OC)c1OC	pIC50	6.29
CSc1nc(-c2ccc(F)cc2)c(-c2ccnc(NC(=O)CC3CC3)c2)[nH]1	pIC50	6.67
CSc1nc(-c2ccc(F)cc2)c(-c2ccnc(NC(=O)CCc3ccc(C(F)(F)F)cc3)c2)[nH]1	pIC50	6.02
O=C(Cc1ccc(F)cc1)Nc1cc(-c2[nH]c(SCc3ccccc3)nc2-c2ccc(F)cc2)ccn1	pIC50	5.82

---

- system: Mitogen-activated protein kinase 14 (Homo sapiens, UniProt Q16539)
- Sequence (Q16539 whole entry): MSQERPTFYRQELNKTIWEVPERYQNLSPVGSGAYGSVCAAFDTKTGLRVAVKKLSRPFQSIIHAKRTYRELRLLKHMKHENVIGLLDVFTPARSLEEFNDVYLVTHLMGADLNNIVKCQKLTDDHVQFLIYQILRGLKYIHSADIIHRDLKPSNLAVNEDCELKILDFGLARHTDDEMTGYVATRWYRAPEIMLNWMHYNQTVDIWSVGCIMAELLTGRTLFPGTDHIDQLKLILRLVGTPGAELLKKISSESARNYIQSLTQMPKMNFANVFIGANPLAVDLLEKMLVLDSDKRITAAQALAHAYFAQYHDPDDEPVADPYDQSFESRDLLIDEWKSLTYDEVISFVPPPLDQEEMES
- assay comment: Inhibition of p38alpha MAPK (unknown origin) using ATF-2 as substrate after 1 hr by ELISA
pIC50: −log10 of the molar value.

molecule	system	pIC50
CSc1nc(-c2ccc(F)cc2)c(-c2ccnc(NC(=O)CCc3ccc(C(F)(F)F)cc3)c2)[nH]1	Mitogen-activated protein kinase 14 (Homo sapiens, UniProt Q16539)	7.57
O=C(Cc1ccc(F)cc1)Nc1cc(-c2[nH]c(SCc3ccccc3)nc2-c2ccc(F)cc2)ccn1	Mitogen-activated protein kinase 14 (Homo sapiens, UniProt Q16539)	8.52
CSc1nc(-c2ccc(F)cc2)c(-c2ccnc(NC(=O)C3CCC3)c2)[nH]1	Mitogen-activated protein kinase 14 (Homo sapiens, UniProt Q16539)	7.57
COc1ccc(CCC(=O)Nc2cc(-c3[nH]c(SC)nc3-c3ccc(F)cc3)ccn2)cc1	Mitogen-activated protein kinase 14 (Homo sapiens, UniProt Q16539)	7.26
CSc1nc(-c2ccc(F)cc2)c(-c2ccnc(NC(=O)[C@H]3C[C@@H](Cl)C3)c2)[nH]1	Mitogen-activated protein kinase 14 (Homo sapiens, UniProt Q16539)	7.74
O=C(Nc1cc(-c2[nH]c(SCc3ccccc3)nc2-c2ccc(F)cc2)ccn1)C1CCCC1	Mitogen-activated protein kinase 14 (Homo sapiens, UniProt Q16539)	7.70
CCc1nc(-c2ccc(F)cc2)c(-c2ccnc(NC(=O)C3CC3)c2)[nH]1	Mitogen-activated protein kinase 14 (Homo sapiens, UniProt Q16539)	7.80
CSc1nc(-c2ccc(F)cc2)c(-c2ccnc(NC(=O)C3CCCO3)c2)[nH]1 (centres undefined)	Mitogen-activated protein kinase 14 (Homo sapiens, UniProt Q16539)	7.55
O=C(Nc1cc(-c2[nH]c(-c3ccccc3)nc2-c2ccc(F)cc2)ccn1)C1CC1	Mitogen-activated protein kinase 14 (Homo sapiens, UniProt Q16539)	7.57
CSc1nc(-c2ccc(F)cc2)c(-c2ccnc(NC(=O)C3CCCC3)c2)[nH]1	Mitogen-activated protein kinase 14 (Homo sapiens, UniProt Q16539)	7.40
Cc1nc(-c2ccc(F)cc2)c(-c2ccnc(NC(=O)C3CC3)c2)[nH]1	Mitogen-activated protein kinase 14 (Homo sapiens, UniProt Q16539)	7.72
CSc1nc(-c2ccc(F)cc2)c(-c2ccnc(NC(=O)C3CC3)c2)[nH]1	Mitogen-activated protein kinase 14 (Homo sapiens, UniProt Q16539)	7.62
C[S+]([O-])c1nc(-c2ccc(F)cc2)c(-c2ccnc(NC(=O)C3CC3)c2)[nH]1 (centres undefined)	Mitogen-activated protein kinase 14 (Homo sapiens, UniProt Q16539)	7.36
COc1cc(CCC(=O)Nc2cc(-c3[nH]c(SC)nc3-c3ccc(F)cc3)ccn2)cc(OC)c1OC	Mitogen-activated protein kinase 14 (Homo sapiens, UniProt Q16539)	7.06
COc1cc(CC(=O)Nc2cc(-c3[nH]c(SC)nc3-c3ccc(F)cc3)ccn2)cc(OC)c1OC	Mitogen-activated protein kinase 14 (Homo sapiens, UniProt Q16539)	7.89
CSc1nc(-c2ccc(F)cc2)c(-c2ccnc(NC(=O)[C@@H]3C[C@H]3c3ccccc3)c2)[nH]1 (relative stereo)	Mitogen-activated protein kinase 14 (Homo sapiens, UniProt Q16539)	7.82
CSc1nc(-c2ccc(F)cc2)c(-c2ccnc(NC(=O)C3CCC(=O)C3)c2)[nH]1 (centres undefined)	Mitogen-activated protein kinase 14 (Homo sapiens, UniProt Q16539)	7.68
O=C(Nc1cc(-c2[nH]cnc2-c2ccc(F)cc2)ccn1)C1CC1	Mitogen-activated protein kinase 14 (Homo sapiens, UniProt Q16539)	7.72
CSc1nc(-c2ccc(F)cc2)c(-c2ccnc(NC(=O)C3CC(=O)C3)c2)[nH]1	Mitogen-activated protein kinase 14 (Homo sapiens, UniProt Q16539)	7.70
